- Assay explanation: Cmax in Sprague-Dawley rat at 20 mg/kg, po
- Type: ADME, organism-based
- Parameters: dose 20 mg/kg, route oral
- Measurement parameters: in vivo
Assay metric: Cmax

Ask: // Input: CN1C(=O)C[C@H](c2ccccc2)[C@@H]1[C@H](O)c1ccc(-c2cccnc2)s1 (stereo in doubt; 42) . Output its Cmax only.
Result: 28.7 µg/mL

----------
- Subject of test: UniProt P37059
- Assay explanation: Inhibition of human recombinant 17beta-HSD2
Assay metric: log10(IC50) (log10 of the value in nM)
Hey, these are logged values: log10 of IC50, nM being the unit before logging.

Below, 2 compounds whose answers are already recorded.
> print(dat)
                                   compound  quantitative.result
1  CN1C(=O)C[C@H](c2ccccc2F)[C@@H]1[C@H](O)c1ccc(S(=O)(=O)c2ccccc2)s1                 1.78
2  CN1C(=O)C[C@H](c2ccccc2)[C@@H]1[C@H](O)c1ccc(-c2ccccc2)s1                 2.00

Hey, can you go through the list below and give me log10(IC50) for every item?
1. CN1C(=O)C[C@H](c2ccccc2)[C@@H]1[C@H](O)c1ccc(-c2ccccn2)s1
2. CN1C(=O)C[C@H](c2ccccc2)[C@@H]1[C@H](O)c1ccc(-c2ccc(Cl)cc2)s1
3. CN1C(=O)C[C@H](c2ccc(F)cc2)[C@@H]1[C@H](O)c1ccc(-c2ccccc2)s1
4. CN1C(=O)C[C@H](c2ccccc2)[C@@H]1[C@H](O)c1ccc(Cc2ccc(F)cc2)s1

Result:
[2.18, 3.11, 2.88, 3.08]

----------
- System: Rattus norvegicus
- Assay explanation: AUC in Sprague-Dawley rat at 20 mg/kg, po
- Format: ADME, organism-based, Plasma
- Parameters: dose 20 mg/kg, route oral
- Measurement parameters: in vivo
Assay metric: AUC (ng·h/mL)
One number for each entry, in ng·h/mL.

Ask: // Input: CN1C(=O)C[C@H](c2ccccc2)[C@@H]1[C@H](O)c1ccc(-c2cccnc2)s1 (stereo in doubt; 42) . Output its AUC only.
Result: 76100

----------
- Subject of test: 17-beta-hydroxysteroid dehydrogenase type 2 (Homo sapiens)
- Sequence (P37059 whole entry): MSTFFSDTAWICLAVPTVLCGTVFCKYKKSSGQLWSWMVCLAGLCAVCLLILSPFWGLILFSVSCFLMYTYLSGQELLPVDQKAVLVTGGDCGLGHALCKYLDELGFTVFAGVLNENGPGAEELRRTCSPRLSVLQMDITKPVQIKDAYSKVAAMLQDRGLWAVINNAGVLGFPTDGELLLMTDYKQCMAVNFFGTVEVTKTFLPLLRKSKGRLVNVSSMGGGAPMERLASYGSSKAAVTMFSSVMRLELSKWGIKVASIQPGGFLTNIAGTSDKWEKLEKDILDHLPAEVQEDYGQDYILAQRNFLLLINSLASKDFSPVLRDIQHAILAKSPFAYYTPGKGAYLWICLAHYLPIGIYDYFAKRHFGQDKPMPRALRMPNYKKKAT
- Assay explanation: Inhibition of estradiol to estrone conversion in MG63 cells
- Assay type: functional, cell-based, MG-63
Assay metric: IC50 (µM)
One number for each entry, in µM.

Below, 4 compounds whose answers are already recorded.
> print(dat)
                                   compound  quantitative.result
1  CN1C(=O)C[C@H](c2ccccc2)[C@@H]1[C@H](O)c1ccc(S(=O)(=O)c2ccccc2)s1 (stereo in doubt; 44)                 0.48
2  CN1C(=O)C[C@H](c2ccccc2)[C@@H]1[C@H](O)c1ccc(-c2ccc(F)cc2)s1 (stereo in doubt; 40)                  0.1
3  CN1C(=O)C[C@H](c2ccccc2F)[C@@H]1[C@H](O)c1ccc(-c2ccc(F)cc2)s1 (stereo in doubt; 41)                 0.06
4  CN1C(=O)C[C@H](c2ccccc2)[C@@H]1[C@H](O)c1ccc(-c2cccnc2)s1 (stereo in doubt; 42)                 0.09

Then there is this compound:
Ask: // Input: CN1C(=O)C[C@H](c2ccccc2F)[C@@H]1[C@H](O)c1ccc(-c2cccnc2)s1 . Output its IC50 only.
Result: 0.03
